Data credit: the CATMoS acute toxicity set (Mansouri et al. 2021)

# ASSAY_SUMMARY: rat acute oral toxicity
# COND: in vivo
Exercise: for every item that follows, state its recorded log10 of LD50.
On a log10 scale: recorded LD50, unit mg/kg.

Would you please look over these solved cases?
INSERT INTO measurements (molecule, endpoint_value) VALUES
  ('O=C(O)C1(C(=O)Nc2ccc(Cl)cc2Cl)CC1', 2.32),
  ('CCN(CC)C(=O)N1CCN(C)CC1', 3.14),
  ('O=[N+]([O-])c1cccc(Cl)c1Cl', 2.58);

Dear colleague, could you please provide log10 of LD50 for the molecules listed below?
1. COc1ccc2c3c1O[C@H]1[C@@H](O)C=C[C@H]4[C@@H](C2)N(C)CC[C@@]341
2. CNN
3. C=CC(=O)OCC(O)COCCCCOCC(O)COC(=O)C=C (stereo unspecified)
4. OCCN1CN(CCO)CN(CCO)C1
5. CO[C@H]1/C=C/O[C@@]2(C)Oc3c(C)c(O)c4c(O)c(c(/C=N/N5CCN(C)CC5)c(O)c4c3C2=O)NC(=O)/C(C)=C\C=C\[C@H](C)[C@H](O)[C@@H](C)[C@@H](O)[C@@H](C)[C@H](OC(C)=O)[C@@H]1C
6. O=Cc1ccc(-c2ccccc2)cc1
7. CCOP(=S)(OCC)Oc1ccc(Cl)cc1Cl

1. 2.63
2. 1.51
3. 2.30
4. 2.88
5. 2.95
6. 3.00
7. 2.24

What log10 of LD50 value was documented for this molecule, OC[P+](CO)(CO)CO ?
2.21
